system: blood coagulation; experiment: PT and aPTT assay in cynomolgus monkeys (Example 46); type: in vivo; settings: Day 10; platelet poor plasma; relative to PBS group
Strand notation (5' to 3'): a small letter for the sugar, then the base; units joined by * are phosphorothioate-linked, units joined directly phosphodiester-linked; [ ] holds rarer units or linkages, { } end groups; capitals alone tell only the bases. e = 2'-O-(2-methoxyethyl) (MOE); [5mC] = 5-methylcytosine; d = 2'-deoxy (DNA)
Assay Metric: PT ratio (INR)

Substance: ISIS 416850: MOE gapmer, nucleobases 1275 to 1318 of SEQ ID NO: 1 (Table 8) (antisense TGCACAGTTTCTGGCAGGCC; MOE gapmer, wing and gap sizes not given here)
PT ratio (INR): 0.99

Please examine the following record next.
Enquiry: What does the data say about its PT ratio (INR)? Entry: ISIS 445522: 5-8-5 or 6-8-6 MOE microwalk gapmer (Table 44) (antisense eG*e[5mC]*eA*e[5mC]*eA*dG*dT*dT*dT*d[5mC]*dT*dG*dG*e[5mC]*eA*eG*eG*e[5mC])
Return: 0.95

====

system: blood coagulation; assay: PT and aPTT assay in cynomolgus monkeys (Example 45); assay type: in vivo; settings: day 78; escalating dose regimen; platelet poor plasma
Each entry below carries its reported PT ratio (INR).
Output: the number by itself.

// known answers, use as guide
Substance: ISIS 417002: MOE gapmer, nucleobases 1275 to 1318 of SEQ ID NO: 1 (Table 8) (antisense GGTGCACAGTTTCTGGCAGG; MOE gapmer, wing and gap sizes not given here)
PT ratio (INR): 1.02

Substance: ISIS 416838: MOE gapmer, nucleobases 1018 to 1042 of SEQ ID NO: 1 (Table 6) (antisense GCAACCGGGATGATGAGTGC; MOE gapmer, wing and gap sizes not given here)
PT ratio (INR): 1.04

Substance: ISIS 416850: MOE gapmer, nucleobases 1275 to 1318 of SEQ ID NO: 1 (Table 8) (antisense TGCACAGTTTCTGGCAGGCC; MOE gapmer, wing and gap sizes not given here)
PT ratio (INR): 1.05

Substance: ISIS 416864: MOE gapmer, nucleobases 1275 to 1318 of SEQ ID NO: 1 (Table 8) (antisense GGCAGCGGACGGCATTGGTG; MOE gapmer, wing and gap sizes not given here)
PT ratio (INR): 1.08

Next, consider the following substance.
Enquiry: Look at this substance and give its reported PT ratio (INR). ISIS 416858: MOE gapmer, nucleobases 1275 to 1318 of SEQ ID NO: 1 (Table 8) (antisense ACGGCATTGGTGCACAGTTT; MOE gapmer, wing and gap sizes not given here)
Return: 1.10

====

Collected percent inhibition of Factor 11 at 6.7 μM values appear next to each entry.
System: human Factor 11 mRNA
Test: Dose-dependent inhibition of human Factor 11 in HepG2 cells, electroporation 0.7-20 uM (Example 4)
Assay type: cell-based
Details: 6.7 μM, relative to untreated control cells
Description: The gapmers were also transfected via electroporation and their dose dependent inhibition of human Factor 11 mRNA was measured. […] After a treatment period of approximately 16 hours, RNA was isolated from the cells and Factor 11 mRNA levels were measured by quantitative real-time PCR. […] Factor 11 mRNA levels were adjusted according to total RNA content, as measured by RIBOGREEN. […]
Strand notation (5' to 3'): a small letter for the sugar, then the base; units joined by * are phosphorothioate-linked, units joined directly phosphodiester-linked; [ ] holds rarer units or linkages, { } end groups; capitals alone tell only the bases. e = 2'-O-(2-methoxyethyl) (MOE); [5mC] = 5-methylcytosine; d = 2'-deoxy (DNA)
Write it as a number; the unit % goes unstated.

Enquiry: Can you share its percent inhibition of Factor 11 at 6.7 μM? I mean this substance: 416892 (antisense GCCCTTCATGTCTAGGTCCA; 3-14-3 chimeric gapmer, further chemistry not given here) [compound 416892]
Return: 82

Enquiry: Param item = 416838 (antisense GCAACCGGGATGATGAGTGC; 5-10-5 gapmer, further chemistry not given here) [compound 416838] ; retrieve measured percent inhibition of Factor 11 at 6.7 μM.
Return: 55

Enquiry: Report percent inhibition of Factor 11 at 6.7 μM for 416826 (antisense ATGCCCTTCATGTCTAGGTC; 5-10-5 gapmer, further chemistry not given here) [compound 416826] please.
Return: 86

Enquiry: GET /values?readout=percent inhibition of Factor 11 at 6.7 μM&item= 416842 (antisense eT*eG*eA*eG*eA*dT*dT*d[5mC]*dT*dT*dT*dG*dG*dG*d[5mC]*e[5mC]*eA*eT*eT*e[5mC]) [compound 416842]
Return: 66

Enquiry: Quick one: percent inhibition of Factor 11 at 6.7 μM for 416864 (antisense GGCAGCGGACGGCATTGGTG; 5-10-5 gapmer, further chemistry not given here) [compound 416864] ?
Return: 78

Enquiry: I'd like to know its percent inhibition of Factor 11 at 6.7 μM. The substance in question is 416999 (antisense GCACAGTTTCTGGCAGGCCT; 2-13-5 gapmer chemistry, further chemistry not given here) [compound 416999]
Return: 77

Enquiry: Field request: percent inhibition of Factor 11 at 6.7 μM | item: 417000 (antisense eT*eG*d[5mC]*dA*d[5mC]*dA*dG*dT*dT*dT*d[5mC]*dT*dG*dG*d[5mC]*eA*eG*eG*e[5mC]*e[5mC]) [compound 417000]
Return: 76

Enquiry: // lookup percent inhibition of Factor 11 at 6.7 μM for 416825 (antisense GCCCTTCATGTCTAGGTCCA; 5-10-5 gapmer, further chemistry not given here) [compound 416825]
Return: 92

Enquiry: Requested read-out: percent inhibition of Factor 11 at 6.7 μM. Entry: 412203 (antisense eA*eA*eT*eG*eT*d[5mC]*dT*dT*dT*dG*dT*dT*dG*d[5mC]*dA*eA*eG*e[5mC]*eG*e[5mC]) [compound 412203]
Return: 70

Enquiry: So what's the measured percent inhibition of Factor 11 at 6.7 μM for this one? 416924 (antisense eG*eT*eG*d[5mC]*dA*d[5mC]*dA*dG*dT*dT*dT*d[5mC]*dT*dG*dG*d[5mC]*dA*eG*eG*e[5mC]) [compound 416924]
Return: 63

Enquiry: Any idea what percent inhibition of Factor 11 at 6.7 μM was measured for 416993 (antisense e[5mC]*eT*dT*dT*dG*dA*dG*dA*dT*dT*d[5mC]*dT*dT*dT*dG*eG*eG*e[5mC]*e[5mC]*eA) [compound 416993] ?
Return: 87
